Please respond with reported IC50 for every item in the list.
# testTarget: COX-1 (Homo sapiens, UniProt P23219)
# Sequence (P23219 24-599): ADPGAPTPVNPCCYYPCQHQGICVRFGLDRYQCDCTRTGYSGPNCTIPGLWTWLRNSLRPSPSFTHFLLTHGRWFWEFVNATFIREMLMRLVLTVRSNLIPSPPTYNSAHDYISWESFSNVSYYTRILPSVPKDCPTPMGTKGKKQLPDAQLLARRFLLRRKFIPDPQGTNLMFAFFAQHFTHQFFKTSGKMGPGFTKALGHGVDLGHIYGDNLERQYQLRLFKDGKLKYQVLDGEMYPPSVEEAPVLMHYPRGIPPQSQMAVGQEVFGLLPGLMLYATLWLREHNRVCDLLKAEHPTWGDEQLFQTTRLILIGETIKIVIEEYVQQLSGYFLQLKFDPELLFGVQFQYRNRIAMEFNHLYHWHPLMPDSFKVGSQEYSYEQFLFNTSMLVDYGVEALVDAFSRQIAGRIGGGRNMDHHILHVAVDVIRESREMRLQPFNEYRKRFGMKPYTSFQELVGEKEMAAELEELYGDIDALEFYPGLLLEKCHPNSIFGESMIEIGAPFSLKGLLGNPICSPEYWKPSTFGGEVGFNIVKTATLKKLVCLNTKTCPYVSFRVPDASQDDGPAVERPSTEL
# protocolDetails: Assay of COX-1 activity from U937 cell microsomes
# Type: biochemical
# Design: Assay of COX-1 Activity from U937 cell microsomes; endogenous in cells; host or cells: U937 cells, 100,000×g microsomal pellet
# experimentalConditions: U937 cell microsomes, PGE2; read-out: COX-1 (IC50 mM) U-937

Would you please look over these solved cases?
CS(=O)(=O)c1ccc(-c2cc(Cl)cnc2N2CCC[C@H]2CO)cc1 = 0.001 to 0.003 mM
CS(=O)(=O)c1ccc(-c2cc(C(F)(F)F)cnc2N2CCC(F)(F)CC2)cc1 = > 0.01 mM
CS(=O)(=O)c1ccc(-c2cc(C(F)(F)F)cnc2N2CCC[C@@H]2CO)cc1 = > 0.01 mM
CS(=O)(=O)c1ccc(-c2cc(Cl)cnc2N2CCCC(CO)C2)cc1 (stereo not shown) = > 0.01 mM
CS(=O)(=O)c1ccc(-c2cc(C(F)(F)F)cnc2N2CCC(F)CC2)cc1 = 0.003 to 0.01 mM

Your task in this section: give IC50 for each listed record.
1. CS(=O)(=O)c1ccc(-c2cc(C(F)(F)F)cnc2N2CCCCC2CO)cc1 (stereo not shown)
2. CS(=O)(=O)c1ccc(-c2cc(C(F)(F)F)cnc2N2CCC[C@@H](CO)C2)cc1 (single isomer, unassigned)
3. CS(=O)(=O)c1ccc(-c2cc(C(F)(F)F)cnc2N2CCCCCC2)cc1
4. CS(=O)(=O)c1ccc(-c2cc(C(F)(F)F)cnc2N2CCC(=O)CC2)cc1
5. CS(=O)(=O)c1ccc(-c2cc(C(F)(F)F)cnc2N2CCC[C@H](CO)C2)cc1 (single isomer, unassigned)

0.01 mM
> 0.01 mM
0.01 mM
> 0.01 mM
0.003 to 0.01 mM

Hey, can you go through the list below and give me IC50 for every item?
1. COC[C@@H]1CCCN1c1ncc(C(F)(F)F)cc1-c1ccc(S(C)(=O)=O)cc1
2. CC1(CO)CCCN(c2ncc(C(F)(F)F)cc2-c2ccc(S(C)(=O)=O)cc2)C1 (stereo not shown)
3. CS(=O)(=O)c1ccc(-c2cc(C(F)(F)F)cnc2N2CCCCC(CO)C2)cc1 (stereo not shown)

1. 0.003 to 0.01 mM
2. > 0.01 mM
3. > 0.01 mM
